Data provenance: ChEMBL document CHEMBL1212913

Listing of recorded IC50 by entry.
Molecular target: Ionotropic glutamate receptor NMDA 1/2D (Rattus norvegicus, UniProt P35439+Q62645)
Sequence (Q62645 whole entry, other chains not shown): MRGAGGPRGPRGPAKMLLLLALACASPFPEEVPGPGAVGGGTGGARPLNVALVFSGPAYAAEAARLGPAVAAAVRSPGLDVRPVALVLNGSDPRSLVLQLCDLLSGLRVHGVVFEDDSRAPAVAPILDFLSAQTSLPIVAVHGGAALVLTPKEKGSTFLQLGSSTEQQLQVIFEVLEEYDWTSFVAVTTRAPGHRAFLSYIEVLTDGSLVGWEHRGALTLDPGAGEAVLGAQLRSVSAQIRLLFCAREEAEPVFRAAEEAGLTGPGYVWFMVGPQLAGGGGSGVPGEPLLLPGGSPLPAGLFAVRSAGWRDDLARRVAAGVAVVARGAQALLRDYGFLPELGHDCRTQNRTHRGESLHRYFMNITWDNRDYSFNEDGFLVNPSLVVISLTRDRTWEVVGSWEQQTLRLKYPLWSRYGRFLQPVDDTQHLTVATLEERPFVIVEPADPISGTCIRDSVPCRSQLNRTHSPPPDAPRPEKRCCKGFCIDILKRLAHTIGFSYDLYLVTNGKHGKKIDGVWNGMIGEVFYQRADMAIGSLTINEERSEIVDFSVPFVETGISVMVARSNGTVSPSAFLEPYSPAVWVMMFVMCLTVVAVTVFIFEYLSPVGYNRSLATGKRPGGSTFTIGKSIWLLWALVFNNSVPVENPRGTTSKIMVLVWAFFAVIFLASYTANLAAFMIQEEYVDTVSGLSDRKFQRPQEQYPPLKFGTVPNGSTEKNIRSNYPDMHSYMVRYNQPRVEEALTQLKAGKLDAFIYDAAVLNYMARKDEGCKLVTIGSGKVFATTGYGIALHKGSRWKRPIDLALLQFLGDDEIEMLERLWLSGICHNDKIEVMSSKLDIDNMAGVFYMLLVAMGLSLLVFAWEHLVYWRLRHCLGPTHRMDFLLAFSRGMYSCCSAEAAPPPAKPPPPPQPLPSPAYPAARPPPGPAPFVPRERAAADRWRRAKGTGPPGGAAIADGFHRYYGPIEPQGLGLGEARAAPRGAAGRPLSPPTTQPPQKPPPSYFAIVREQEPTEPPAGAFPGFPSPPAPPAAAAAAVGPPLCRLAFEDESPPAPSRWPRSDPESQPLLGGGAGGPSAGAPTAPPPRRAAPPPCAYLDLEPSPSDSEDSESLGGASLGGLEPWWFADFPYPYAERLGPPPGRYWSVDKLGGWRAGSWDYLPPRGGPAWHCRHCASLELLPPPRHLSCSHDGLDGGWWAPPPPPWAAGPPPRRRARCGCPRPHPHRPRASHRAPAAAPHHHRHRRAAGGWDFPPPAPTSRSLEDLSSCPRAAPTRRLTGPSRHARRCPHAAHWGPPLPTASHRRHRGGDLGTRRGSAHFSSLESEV
Test: Antagonist activity at rat recombinant NR1-NR2D receptor expressed in Xenopus oocytes at holding potential of -40mV by two-electrode voltage-clamp electrophysiology

{"columns": ["SMILES_NOTATION", "MODIFIER_SIGN", "IC50, µM"],
 "data": [
  ["O=C(O)c1ccc(/C=C/c2nc3ccccc3c(=O)n2-c2ccc(C(=O)O)cc2)cc1", ">", 300],
  ["O=C(O)c1cccc(-n2c(/C=C/c3ccc([N+](=O)[O-])cc3)nc3ccccc3c2=O)c1", "=", 27],
  ["Cc1cccc(-n2c(/C=C/c3cccnc3)nc3ccc(I)cc3c2=O)c1", ">", 300],
  ["O=C(O)c1cccc(-n2c(/C=C/c3cccc([N+](=O)[O-])c3)nc3ccccc3c2=O)c1", "=", 15],
  ["CCCc1ccc2nc(/C=C/c3cccc([N+](=O)[O-])c3)n(-c3ccc(C(=O)O)cc3)c(=O)c2c1", "=", 4],
  ["CN(C)c1ccc(/C=C/c2nc3ccccc3c(=O)n2-c2ccc(C(=O)O)cc2)cc1", "=", 53],
  ["O=C(O)c1ccc(-n2c(/C=C/c3cccnc3)nc3ccc(I)cc3c2=O)cc1", "=", 4],
  ["O=c1c2cc(I)ccc2nc(/C=C/c2cccnc2)n1-c1ccccc1", "=", 108],
  ["O=C(O)c1ccc(-n2c(/C=C/c3ccccc3O)nc3ccccc3c2=O)cc1", "=", 18],
  ["COc1ccc2nc(/C=C/c3ccc([N+](=O)[O-])cc3)n(-c3cccc(C(=O)O)c3)c(=O)c2c1", "=", 16],
  ["O=C(O)c1ccc(-n2c(/C=C/c3ccc([N+](=O)[O-])cc3)nc3ccccc3c2=O)cc1", "=", 15],
  ["O=C(O)c1ccc(-n2c(/C=C/c3cccc([N+](=O)[O-])c3)nc3ccc(-c4ccccc4)cc3c2=O)cc1", "=", 2],
  ["O=C(O)c1ccc(-n2c(/C=C/c3cccc([N+](=O)[O-])c3)nc3ccc(I)cc3c2=O)cc1", "=", 0.6],
  ["O=C(O)c1ccc(-n2c(/C=C/c3ccccc3C(F)(F)F)nc3ccccc3c2=O)cc1", "=", 28],
  ["O=C(O)c1ccc(-n2c(/C=C/c3cccc([N+](=O)[O-])c3)nc3ccccc3c2=O)cc1", "=", 9],
  ["Cc1ccc(/C=C/c2nc3ccccc3c(=O)n2-c2ccc(C(=O)O)cc2)cc1", "=", 17],
  ["Cc1ccc2nc(CCc3ccccc3)n(-c3ccc(C(=O)O)cc3)c(=O)c2c1", "=", 282],
  ["COc1ccccc1-n1c(/C=C/c2ccccc2[N+](=O)[O-])nc2ccccc2c1=O", "=", 5],
  ["C=CCOc1ccc(/C=C/c2nc3ccccc3c(=O)n2-c2ccc(C(=O)O)cc2)cc1", "=", 30],
  ["O=C(O)c1ccc(-n2c(/C=C/c3cccc([N+](=O)[O-])c3)nc3ccc(Br)cc3c2=O)cc1", "=", 1],
  ["O=C(O)c1ccc(-n2c(/C=C/c3ccc(N4CCOCC4)cc3)nc3ccccc3c2=O)cc1", "=", 171],
  ["COc1ccc(-n2c(/C=C/c3ccc([N+](=O)[O-])cc3)nc3ccccc3c2=O)cc1", "=", 221]
]}
